# ASSAY TARGET: T1, rat-type galanin (SEQ ID NO: 61) (Rattus norvegicus, UniProt P10683)
# T1 sequence (P10683 33-61 limits assumed): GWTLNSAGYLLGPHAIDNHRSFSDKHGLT
# TEST DETAILS: Competitive EIA of monoclonal antibodies against rat galanin
# Format: binding
# MEASUREMENT CONDITIONS: B/B0 in the presence of 100 nM immunogen; HRP-labeled SEQ ID NO: 44
ASSAY METRIC: Reactivity Rat Galanin (SEQ ID NO: 61)

1 (protein, Rat) MELAPVNLSEGNGSDPEPPAEPRPLFGIGVENFITLVVFGLIFAMGVLGNSLVITVLARSKPGKPRSTTNLFILNLSIADLAYLLFCIPFQATVYALPTWVLGAFICKFIHYFFTVSMLVSIFTLAAMSVDRYVAIVHSRRSSSLRVSRNALLGVGFIWALSIAMASPVAYYQRLFHRDSNQTFCWEHWPNQLHKKAYVVCTFVFGYLLPLLLICFCYAKVLNHLHKKLKNMSKKSEASKKKTAQTVLVVVVVFGISWLPHHVIHLWAEFGAFPLTPASFFFRITAHCLAYSNSSVNPIIYAFLSENFRKAYKQVFKCRVCNESPHGDAKEKNRIDTPPSTNCTHV: − (0.80 ≦ (B/B0))
2 (protein, Rat) MNGSGSQGAENTSQEGGSGGWQPEAVLVPLFFALIFLVGTVGNALVLAVLLRGGQAVSTTNLFILNLGVADLCFILCCVPFQATIYTLDDWVFGSLLCKAVHFLIFLTMHASSFTLAAVSLDRYLAIRYPLHSRELRTPRNALAAIGLIWGLALLFSGPYLSYYRQSQLANLTVCHPAWSAPRRRAMDLCTFVFSYLLPVLVLSLTYARTLRYLWRTVDPVTAGSGSQRAKRKVTRMIIIVAVLFCLCWMPHHALILCVWFGRFPLTRATYALRILSHLVSYANSCVNPIVYALVSKHFRKGFRKICAGLLRPAPRRASGRVSILAPGNHSGSMLEQESTDLTQVSEAAGPLVPPPALPNCTASSRTLDPAC: − (0.80 ≦ (B/B0))
8 (protein, Porcine) MPRGCALLLASLLLASALSATLGLGSPVKEKRGWTLNSAGYLLGPHAIDNHRSFHDKYGLAGKRELEPEDEARPGGFDRLQSEDKAIRTIMEFLAFLHLKEAGALGRLPGLPSAASSEDAGQS: − (0.80 ≦ (B/B0))
